Tested on: NCI-H460 lung
Assay explanation: NCI-60 one-dose screen, 48 h
Experimental parameters: 10 µM unless noted
The panel holds about 83,000 compounds, 20% with a hit somewhere; the sample as a whole holds those more often. The source made the active and inactive calls. How the source made its calls: active means growth percent below 10; inactive means the rest.
Labels: YES for active, NO for inactive

Compound	Category label
COc1ccc2[nH]cc(-c3cc(N)n4nc(-c5c[nH]c6ccccc56)cc4n3)c2c1	YES
COC(=O)c1c(C(=O)OC)c2c3ccccc3c3ccccc3n2c1C(=O)C(F)(F)F	NO
COc1cc(C2CC(c3ccc(F)cc3)=Nc3c(N)nc(N)nc3N2)ccc1Oc1nc(Nc2ccc(F)cc2)nc(N(C)C)n1 (stereo not drawn)	NO
COc1ccc(-c2nc3ccc(-c4nnc(SCC(=O)Nc5ccc(/C(C)=N\O)cc5)o4)cc3[nH]2)cc1	NO
CC1CCc2c(sc3nc(SCC(=O)c4cccc(Br)c4)n(-c4ccccc4)c(=O)c23)C1 (stereo not drawn)	NO
CC1=C(C(=O)OC(C)C)C(c2ccc(O)cc2)NC(=O)N1 (stereo not drawn)	NO
NCCCCn1c(SCCc2c[nH]c3ccccc23)nnc1-c1ccc2ccccc2n1	YES
Cc1nc(Nc2ccccn2)sc1C1=NNC(c2ccccc2F)C1 (stereo not drawn)	NO
Cc1ccc(C(=O)Nc2cc(-c3ccccc3)cc(C(F)(F)F)c2)cc1C#Cc1cnc2cccnn12	NO
COC(=O)c1cc(C(=O)CBr)n2c1ccc1c3ccccc3ccc12	NO
O=C(Cn1c(-c2ccccc2)nc2ccccc21)N=Nc1c(O)[nH]c2ccc(Cl)cc12	YES
O=C(NC(=S)N1CCN(c2ncnc3c2cnn3-c2ccccc2)CC1)c1ccc(Br)cc1	NO
Fc1ccc(F)c(CNc2nc(SCCN3CCOCC3)nc3c2cnn3CC(Cl)c2ccc(Br)cc2)c1 (stereo not drawn)	YES
Cc1ccc(/C=C/C(=O)c2ccc(S(=O)(=O)NCCNc3nc(N(C)C)nc(N4CCOCC4)n3)cc2)cc1	NO
C/C(=N/O)c1ccc(NC(=O)CSc2nnc(-c3ccc(-c4nc5ccc(Cl)cc5[nH]4)cc3)o2)cc1	YES
CCCCCCCCc1cccc(CC(=O)Nc2ccc(C)cc2C(=O)O)c1	NO
NC(=O)c1ccc(-c2ccc3ncnc(N4CCc5cc(F)c(Cl)cc54)c3c2)cn1	NO
Cc1ccc(O)cc1Nc1nc(SCCN2CCOCC2)nc2c1cnn2CC(Cl)c1ccc(Br)cc1 (stereo not drawn)	YES

----------
Test system: OVCAR-4 ovarian
Assay explanation: NCI-60 one-dose screen, 48 h (100 = growth as untreated, 0 = no growth, -100 = all killed)
Experimental parameters: 10 µM unless noted
About 83,000 compounds went through this panel and 20% of them were active in at least one assay; those are over-represented in the sample as a whole.
# growth binned as range A = under 40%, range B = from 40% up to 60%, range C = 60% and over

Compound	Target entity	Category label
COc1cc(/C=N/NC(=O)c2ccc(OCc3nc4ccc(C)cc4[nH]3)cc2)cc(OC)c1OC	OVCAR-4 ovarian	range C
O=C(CSc1nc2ccccc2c(=O)[nH]1)Nc1ccccc1C(=O)O	OVCAR-4 ovarian	range C
O=C(NNC(=S)NCCc1ccccc1)c1ccc(OCc2nc3ccc(Cl)cc3[nH]2)cc1	OVCAR-4 ovarian	range B
COc1ccc2c(c1)c(-c1cc(N)n3nc(-c4c[nH]c5ccccc45)cc3n1)cn2C	OVCAR-4 ovarian	range A
Cc1cc(N=C(N)c2ccccc2)ccc1OCCCCCCCCn1ccnc1	OVCAR-4 ovarian	range A
Nc1nnc(-c2cncc(Br)c2)c(-c2c[nH]c3ccc(Cl)cc23)n1	OVCAR-4 ovarian	range B
O=C(N=Nc1c(O)[nH]c2ccc(Br)cc12)c1ccc2nc(-c3ccc(Cl)cc3)[nH]c2c1	OVCAR-4 ovarian	range A
COc1ccc(N=Nc2c(N)nn3c(N)c(C#N)c(-c4ccc(F)cc4)nc23)cc1	OVCAR-4 ovarian	range B
COc1cc(C2C(C(=O)OCc3ccccc3)=C(C)Nc3nc4ccccc4n32)cc(OC)c1OC (stereo not given)	OVCAR-4 ovarian	range A
CCC(=O)c1c2c(c3ccc4c5ccccc5ccc4n13)C(=O)c1ccccc1C2=O	OVCAR-4 ovarian	range C
c1n[nH]cc1-c1nc2ccc3cn[nH]c3c2c2c1CCCC2	OVCAR-4 ovarian	range C
CCc1ccccc1NC(=O)N/C(N)=N/c1nc2ccccc2s1	OVCAR-4 ovarian	range A
O=C(Nc1ccc(F)cc1)Nc1nc2ccc([N+](=O)[O-])cc2s1	OVCAR-4 ovarian	range A
O=C(c1ccc(O)cc1)C1[C@H](c2ccccc2Br)[C@@H](c2ccccc2)NC12C(=O)Nc1ccccc12 (stereo not given in full)	OVCAR-4 ovarian	range B
O=CNc1ccc(-n2cnc3cc(-c4ccc(O)cc4)ccc32)cc1	OVCAR-4 ovarian	range C
O=C(Nc1ccc(S(=O)(=O)N2CCCCC2)cc1)C(Cl)Cl	OVCAR-4 ovarian	range C
CN(CCSSCCN1CCOCC1)C(=O)Oc1cc2c(c3ccccc13)[C@H](CCl)CN2C(=O)c1cc2cc(OCCCN3CCC3)ccc2[nH]1	OVCAR-4 ovarian	range A
CCOc1ccccc1[C@H]1C(C(=O)c2ccc(Cl)cc2)C2(N[C@@H]1c1ccccc1)C(=O)Nc1ccccc12 (stereo not given in full)	OVCAR-4 ovarian	range A
OCCn1cc(-c2nc3ccc4[nH]ncc4c3c3c2CCCC3)cn1	OVCAR-4 ovarian	range C
CC(C)C[C@H](NC(=O)[C@@H]1CCCCCCCCCCC(=O)N[C@@H](CC(=O)N2CCC[C@@H]2C2CCCC2)C(=O)N1)B(O)O	OVCAR-4 ovarian	range A
NS(=O)(=O)c1ccc(Nc2nc(SCC(=O)c3ccc(F)cc3)nc3ccccc23)cc1	OVCAR-4 ovarian	range A
COc1ccc(N=Nc2c(N)nn3c(N)c(C#N)c(-c4ccc(C)cc4)nc23)cc1	OVCAR-4 ovarian	range B
Cc1ccc(C(=O)Nc2cc(-c3ccccc3)cc(C(F)(F)F)c2)cc1C#Cc1cnc2cccnn12	OVCAR-4 ovarian	range B
